Origin of the recorded values: the Kinase Knowledgebase extract (Sharma et al. 2016)

Assay system PIK3CA (human) (UniProt P42336); read-out recorded as IC50.
measured-endpoint: IC50 (µM)

Example molecules with recorded IC50:
| molecule | IC50 / µM |
| --- | --- |
| Cc1nc(N)nc2c1cc(-c1cnc3[nH]ccc3c1)c(=O)n2CC1CCCO1 (stereo not given) | 0.0054 |
| COc1ncc(-c2cc3c(C)nc(N)nc3n([C@H]3CC[C@H](OCCO)CC3)c2=O)cn1 | 0.0022 |
| Cc1nc(N)nc2c1cc(-c1cn[nH]c1)c(=O)n2C1CN(C(=O)OC(C)(C)C)C1 | 0.12 |
| COc1ccc(-c2cc3c(C)nc(NCC(F)F)nc3n([C@H]3CC[C@H](O)CC3)c2=O)cn1 | 0.012 |

A = C=CCn1c(=O)c(-c2ccc(OC)nc2)cc2c(C)nc(NC)nc21
B = COc1ncccc1-c1cc2c(C)nc(N)nc2n(C2CCCC2)c1=O
Challenge: Problem: Given the entries A and B , determine which has the lower reported IC50. // respond with label for picked entry
Response given: A

a = CCNc1nc(C)c2cc(CCC(=O)OCC)c(=O)n(C3CCCC3)c2n1
b = CCN(CC)C(=O)OCn1cc(-c2cc3c(C)nc(N)nc3n(C(C)C)c2=O)nn1
c = Cc1nc(N)nc2c1cc(-c1cnc3[nH]ccc3c1)c(=O)n2[C@H]1CC[C@H](O)CC1
d = CNc1nc(C)c2cc(-c3cnn(C)c3)c(=O)n(C3CCCC3)c2n1
Challenge: Reorder the items by IC50, least to greatest. Order the labels as requested and list them.
Response given: c, d, b, a
(c: 0.0013 µM, d: 0.039 µM, b: 3.3 µM, a: 5.5 µM)

----------
Target: PIK3CA (human), P42336 [Antiproliferation of PI3K Mutated BT20 Cells]
Sequence (P42336 whole entry, looked up, change not shown): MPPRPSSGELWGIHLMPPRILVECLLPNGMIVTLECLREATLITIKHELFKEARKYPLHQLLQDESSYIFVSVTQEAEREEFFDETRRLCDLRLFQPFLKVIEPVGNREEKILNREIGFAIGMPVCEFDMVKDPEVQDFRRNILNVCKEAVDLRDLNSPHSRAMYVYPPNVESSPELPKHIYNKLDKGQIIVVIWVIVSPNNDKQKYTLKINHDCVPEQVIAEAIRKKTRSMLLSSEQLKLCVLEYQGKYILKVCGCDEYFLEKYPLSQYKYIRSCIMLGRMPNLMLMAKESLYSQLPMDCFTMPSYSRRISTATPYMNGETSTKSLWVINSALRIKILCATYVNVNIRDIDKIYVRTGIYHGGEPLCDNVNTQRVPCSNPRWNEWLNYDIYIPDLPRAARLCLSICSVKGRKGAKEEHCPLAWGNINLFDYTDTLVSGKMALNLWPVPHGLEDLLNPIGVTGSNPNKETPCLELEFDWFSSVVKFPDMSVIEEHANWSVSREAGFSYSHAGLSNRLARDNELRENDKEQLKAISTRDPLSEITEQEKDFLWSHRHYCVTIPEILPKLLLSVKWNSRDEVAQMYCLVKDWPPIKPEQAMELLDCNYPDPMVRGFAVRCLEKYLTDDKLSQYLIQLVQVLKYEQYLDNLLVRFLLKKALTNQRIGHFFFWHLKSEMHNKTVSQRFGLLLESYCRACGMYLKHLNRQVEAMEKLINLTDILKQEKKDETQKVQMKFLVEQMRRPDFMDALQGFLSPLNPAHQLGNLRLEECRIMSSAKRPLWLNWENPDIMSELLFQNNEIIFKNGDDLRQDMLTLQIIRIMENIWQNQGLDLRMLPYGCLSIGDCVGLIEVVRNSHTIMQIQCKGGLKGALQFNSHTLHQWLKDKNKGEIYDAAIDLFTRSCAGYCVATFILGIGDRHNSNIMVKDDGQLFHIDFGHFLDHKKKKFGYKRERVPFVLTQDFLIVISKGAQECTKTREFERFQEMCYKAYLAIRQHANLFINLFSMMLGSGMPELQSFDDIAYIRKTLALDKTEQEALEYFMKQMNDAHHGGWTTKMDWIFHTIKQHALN
Assay: Cell-Based Assay
pIC50: −log10 of the molar value.
measured-endpoint: pIC50

Example compounds with recorded pIC50:
| compound | measured-endpoint | numeric-readout |
| --- | --- | --- |
| COc1ccc(-c2cc3c(C)nc(N)nc3n([C@H]3C[C@H](OCC(N)=O)C3)c2=O)cn1 | pIC50 | 7.47 |
| Cc1nc(N)nc2c1cc(Br)c(=O)n2CC(C)(C)O | pIC50 | 5.63 |

I = COc1ncc(-c2cc3c(C)nc(N)nc3n([C@H]3C[C@H](OCC(N)=O)C3)c2=O)cc1F
II = CNc1nc(C)c2cc(-c3ccc(Cl)nc3)c(=O)n(C3CCCC3)c2n1
III = Cc1nc(N)nc2c1cc(-c1cnc3[nH]ccc3c1)c(=O)n2[C@@H]1CC[C@@H](O)C1
IV = CCNc1nc(C)c2cc(CCCO)c(=O)n(C3CCCC3)c2n1
Challenge: hey, can you rank those compounds up there by pIC50? biggest number first please Order the labels as requested and list them.
Response given: I, III, II, IV

----------
Target: PIK3CA (human), P42336 [Antiproliferation of PI3K Mutated BT20 Cells]
Experiment: Cell-Based Assay
pIC50: −log10 of the molar value.
measured-endpoint: pIC50

I = CCNc1nc(C)c2cc(CCC(=O)Nc3ncc[nH]3)c(=O)n(C3CCCC3)c2n1
II = Cc1nc(N)nc2c1cc(-c1cnc3[nH]ccc3c1)c(=O)n2CC1CCOC1 (stereo not given)
III = COc1ccc(-c2cc3c(C)nc(N)nc3n([C@H]3CC[C@H](O)CC3)c2=O)cn1
IV = Cc1nc(N)nc2c1cc(Br)c(=O)n2[C@H]1CC[C@H](OCCO)CC1
V = COc1ncc(-c2cc3c(C)nc(N)nc3n(C3CCCC3)c2=O)cn1
Challenge: Task for the reader: place the compounds above in descending order according to recorded pIC50. Order the labels as requested and list them.
Response given: III, V, II, IV, I
(III: 8.44, V: 8.02, II: 7.24, IV: 7.02, I: 5.24)
